// data source = PubChem BioAssay

- Test system: glycogen synthase kinase-3 (GSK3A per assay name; protocol says GSK3B)
- ASSAY COMMENT: compounds binding glycogen synthase kinase-3 – biochemical, small-molecule microarray, 635 nm fluorescence, GSK3A, primary screen (AID 1103); further: the record names both GSK3A and GSK3B
- EXPERIMENTAL PARAMETERS: fluorescence 635 nm, higher = more signal
EXPERIMENTAL READOUT: composite z-score

compound=COc1ccc(C(=O)Nc2ccc3c(c2)[C@@]2(O[C@H](CCO)[C@@H]([Si](C)(C)c4ccc(OC)cc4)[C@@H]2C)C(=O)N3Cc2ccccc2)cc1 experimental_readout="composite z-score" val=0.369
compound=CC(C)NC(=O)[C@@H]1c2ccccc2C(=O)N(Cc2ccccc2C(F)(F)F)[C@H]1c1ccc(CO)cc1 experimental_readout="composite z-score" val=-0.295
compound="C=CC[C@]1(C(=O)NCC(O)CO)COC(c2ccc(OCCCO)cc2)=N1 (some centres undefined)" experimental_readout="composite z-score" val=0.0993
compound=CCOC(=O)C[C@H]1[C@H](OC(=O)Cc2ccc3c(c2)OCO3)[C@@H](NC(=O)c2ccc3ccccc3n2)c2cc(OCCCO)ccc2N1C(=O)Cc1ccc(OC)cc1 experimental_readout="composite z-score" val=0.25
